Values from patent US10729674B2

- test method notes: Solubility of genistein in vehicles at 25° C.
- Format: physicochemical
- condition set: 25 °C, aqueous with cosolvent or surfactant or cyclodextrin, thermodynamic from solid, 30% Hydroxypropyl-β-cyclodextrin; read-out: Solubility of GENISTEIN at 25° C.

# chemical structure, solubility / µg/mL
measured = [
    ("O=c1c(-c2ccc(O)cc2)coc2cc(O)cc(O)c12", 6000),
]

###

- test method notes: Solubility of genistein in vehicles at 25° C.
- Type: physicochemical
- condition set: 25 °C, pH 9, aqueous buffer, thermodynamic from solid, Borate buffer pH 9, 14 days
endpoint label: solubility at 14 days (µg/mL)

# chemical structure, endpoint label, obs value
data = [
    ("O=c1c(-c2ccc(O)cc2)coc2cc(O)cc(O)c12", "solubility at 14 days", 5),
]

###

- test method notes: Solubility of genistein in vehicles at 25° C.
- Assay type: physicochemical
- condition set: 25 °C, organic solvent or mixture, thermodynamic from solid, Propylene Glycol; read-out: Solubility at 25° C.

# chemical structure, unit of measure, solubility
records = [
    ("O=c1c(-c2ccc(O)cc2)coc2cc(O)cc(O)c12", "µg/mL", 6200),
]

###

- test method notes: Solubility of genistein in vehicles at 25° C.
- Format: physicochemical
- condition set: 25 °C, pH 7, aqueous with cosolvent or surfactant or cyclodextrin, thermodynamic from solid, 10% Polysorbate 80/10% EtOH/40% PEG400/40% 25 mM Phosphate Buffered Saline (pH 7); read-out: Solubility of GENISTEIN at 25° C.

# molecule, unit of measure, solubility
rows = [
    ("O=c1c(-c2ccc(O)cc2)coc2cc(O)cc(O)c12 [Genistein]", "mg/mL", 12),
]

###

- test method notes: Solubility of genistein in vehicles at 25° C.
- Format: physicochemical
- condition set: 25 °C, organic solvent or mixture, thermodynamic from solid, Polyethylene Glycol 400 (PEG400); read-out: Solubility at 25° C.
endpoint label: solubility (mg/mL)

# molecule, unit of measure, obs value
data = [
    ("O=c1c(-c2ccc(O)cc2)coc2cc(O)cc(O)c12 [Genistein]", "mg/mL", 115),
]

###

- test method notes: Solubility of genistein in vehicles at 25° C.
- Type: physicochemical
- condition set: 25 °C, aqueous with cosolvent or surfactant or cyclodextrin, thermodynamic from solid, 30% Sulfobutylether-β-cyclodextrin; read-out: Solubility of GENISTEIN at 25° C.
endpoint label: solubility (µg/mL)

# compound, endpoint label, obs value
measured = [
    ("O=c1c(-c2ccc(O)cc2)coc2cc(O)cc(O)c12 [Genistein]", "solubility", 8000),
]

###

- test method notes: Solubility of genistein in vehicles at 25° C.
- Format: physicochemical
- condition set: 25 °C, organic solvent or mixture, thermodynamic from solid, Polyethylene Glycol 300 (PEG300); read-out: Solubility at 25° C.
endpoint label: solubility (mg/mL)

# chemical structure, endpoint label, obs value
rows = [
    ("O=c1c(-c2ccc(O)cc2)coc2cc(O)cc(O)c12", "solubility", 110),
]

###

- test method notes: Solubility of genistein in vehicles at 25° C.
- Format: physicochemical
- condition set: 25 °C, organic solvent or mixture, thermodynamic from solid, Dimethyl acetamide (DMA); read-out: Solubility at 25° C.
endpoint label: solubility

# chemical structure, obs value
records = [
    ("O=c1c(-c2ccc(O)cc2)coc2cc(O)cc(O)c12", "141 mg/mL"),
]

###

- test method notes: Solubility of genistein in vehicles at 25° C.
- Assay type: physicochemical
- condition set: 25 °C, pH 9, aqueous buffer, thermodynamic from solid, Borate buffer pH 9, 7 days
- Text: Calculated pka's for genistein range from 7-9, with the predicted solubility increasing above pH 7 in accordance with the lowest pKa. The calculated properties were used to design the appropriate pH range for the pH-solubility profile of genistein in several acceptable cosolvents, which was established to be pH 6-9. […]

# chemical structure, solubility at 7 days, µg/mL
rows = [
    ("O=c1c(-c2ccc(O)cc2)coc2cc(O)cc(O)c12", 43),
]
